experimental.details: Equilibrium solubility of Compound 1 in common buffers
Assay type: physicochemical
assay.conditions: pH 6.67, aqueous buffer, thermodynamic from solid; sodium phosphate 200 mM, pH (Buffer) 8.00, pH (Meas.) 6.67, room temperature 24 h; read-out: Avg. c(Compound 1, FB), equilibrium solubility
reported.endpoint: solubility thermodynamic at 24 h (mg/mL)
Write the answer as a number in mg/mL, unit excluded.

response.value for C[C@@H](NC(=O)N1C(=O)[C@H](Cc2ccnc(N)c2)[C@H]1C(=O)O)C1CCCCC1 [Compound 1] (field: solubility thermodynamic at 24 h) = 15.3

====

experimental.details: Equilibrium solubility of Compound 1 in common buffers
Assay type: physicochemical
assay.conditions: citrate buffer, pH 2.72, aqueous buffer, thermodynamic from solid; citric acid/sodium 200 mM, pH (Buffer) 3.00, pH (Meas.) 2.72, room temperature 24 h; read-out: Avg. c(Compound 1, FB), equilibrium solubility
reported.endpoint: solubility thermodynamic at 24 h (µg/mL)
Write the answer as a number in µg/mL, unit excluded.

response.value for `C[C@@H](NC(=O)N1C(=O)[C@H](Cc2ccnc(N)c2)[C@H]1C(=O)O)C1CCCCC1` (field: solubility thermodynamic at 24 h) = 5960
